Overview of reported Emax across a group of compounds:
TESTED TARGET: UniProt P28223
Sequence (P28223 whole entry): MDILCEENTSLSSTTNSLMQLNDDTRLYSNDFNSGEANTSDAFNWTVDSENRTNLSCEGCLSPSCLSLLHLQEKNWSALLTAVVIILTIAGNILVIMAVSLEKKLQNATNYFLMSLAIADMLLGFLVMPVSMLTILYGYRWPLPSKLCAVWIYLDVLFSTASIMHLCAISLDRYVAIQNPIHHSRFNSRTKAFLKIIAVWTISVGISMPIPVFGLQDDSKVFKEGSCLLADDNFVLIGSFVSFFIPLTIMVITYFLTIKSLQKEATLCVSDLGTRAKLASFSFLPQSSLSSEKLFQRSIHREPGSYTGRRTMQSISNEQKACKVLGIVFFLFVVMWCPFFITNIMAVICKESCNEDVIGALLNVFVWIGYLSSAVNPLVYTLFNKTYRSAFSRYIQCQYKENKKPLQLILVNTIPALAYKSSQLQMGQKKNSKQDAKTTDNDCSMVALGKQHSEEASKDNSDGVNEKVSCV
ASSAY NAME: Agonist activity at human recombinant 5HT2A receptor expressed in Swiss mouse 3T3 cells assessed as induction of calcium mobilization by FLIPR assay
Format: functional, cell-based
STUDY CONDITIONS: NIH3T3
OBSERVATION TYPE: Emax (%)

COMPOUND STRING	OBSERVATION TYPE	UOM	TEST VALUE
C[C@@H]1CNCCN1c1ccc(=O)n(CCOc2ccccc2Cl)n1	Emax	%	42
O=c1ccc(N2CCNCC2)nn1CCOc1ccccc1C(F)(F)F	Emax	%	49
C[C@@H](COc1ccccc1Cl)n1nc(N2CCNCC2)ccc1=O	Emax	%	69
O=c1ccc(N2CCNCC2)nn1CCOc1ccccc1Cl	Emax	%	41
Clc1ccccc1CCOc1cncc(N2CCNCC2)n1	Emax	%	56
Clc1cccc(N2CCNCC2)c1	Emax	%	58
C[C@@H]1CNCCN1c1ccc(=O)n(CCOc2ccccc2C(F)(F)F)n1	Emax	%	61

====

System: Canis familiaris
ASSAY NAME: Plasma concentration in continuous iv dosed dog
Type: ADME, organism-based, Canis lupus familiaris
STUDY CONDITIONS: in vivo

COMPOUND STRING	concentration / nM
C[C@@H]1CNCCN1c1ccc(=O)n(CCOc2ccccc2C(F)(F)F)n1	52

====

Property: pKi; scope: individual compounds
TESTED TARGET: 5-hydroxytryptamine receptor 2C (Homo sapiens)
ASSAY NAME: Displacement of [3H]meselurgine from human recombinant 5HT2C receptor expressed in Swiss mouse 3T3 cells by SPA
Format: cell-based
pKi: −log10 of the molar value.
OBSERVATION TYPE: pKi

COMPOUND STRING	OBSERVATION TYPE	TEST VALUE
C[C@@H]1CNCCN1c1ccc(=O)n(CCOc2ccccc2C(F)(F)F)n1	pKi	7.05
C[C@@H](COc1ccccc1Cl)n1nc(N2CCNCC2)ccc1=O	pKi	6.14
C[C@@H]1CNCCN1c1ccc(=O)n(CCOc2ccccc2Cl)n1	pKi	6.49
O=c1ccc(N2CCNCC2)nn1CCOc1ccccc1C(F)(F)F	pKi	6.37
O=c1ccc(N2CCNCC2)nn1CCOc1ccccc1Cl	pKi	5.80

====

TESTED TARGET: 5-hydroxytryptamine receptor 2C (Homo sapiens, UniProt P28335)
Sequence (P28335 whole entry): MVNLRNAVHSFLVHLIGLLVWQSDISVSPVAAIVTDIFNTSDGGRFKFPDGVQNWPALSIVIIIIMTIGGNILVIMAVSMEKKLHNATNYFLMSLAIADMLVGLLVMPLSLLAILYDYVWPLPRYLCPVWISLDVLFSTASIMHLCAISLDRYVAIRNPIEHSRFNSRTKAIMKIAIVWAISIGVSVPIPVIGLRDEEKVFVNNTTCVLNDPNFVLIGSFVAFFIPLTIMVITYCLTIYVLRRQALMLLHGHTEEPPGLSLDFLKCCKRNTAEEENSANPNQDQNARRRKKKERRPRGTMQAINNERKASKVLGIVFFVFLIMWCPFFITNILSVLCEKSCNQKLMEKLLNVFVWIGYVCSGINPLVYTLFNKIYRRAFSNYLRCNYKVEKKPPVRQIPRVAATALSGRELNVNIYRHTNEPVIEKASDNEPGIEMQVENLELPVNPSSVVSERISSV
ASSAY NAME: Agonist activity at human recombinant 5HT2C receptor expressed in CHOK1 cells assessed as induction of calcium mobilization by FLIPR assay

COMPOUND	RELATION QUALIFIER	EC50, nM
O=c1ccc(N2CCNCC2)nn1CCOc1cccc(Cl)c1Cl	>	2130
O=c1ccc(N2CCNCC2)nn1CCOc1ccccc1Br	=	101
N#Cc1ccccc1OCCn1nc(N2CCNCC2)ccc1=O	=	114
O=c1ccc(N2CCNCC2)nn1CCOc1ccc(Cl)cc1	>	10000
C[C@@H]1CNCCN1c1ccc(=O)n(CCOc2ccccc2C(F)(F)F)n1	=	11
Cc1cc(=O)n(CCOc2ccccc2Cl)nc1N1CCNCC1	=	510
C[C@@H]1CNCCN1c1ccc(=O)n(CCOc2ccccc2Cl)n1	=	25
O=c1c2c(c(N3CCNCC3)nn1CCOc1ccccc1Cl)CCC2	>	10000
C[C@@H](Cn1nc(N2CCNCC2)ccc1=O)Oc1ccccc1Cl	=	360
C[C@H](COc1ccccc1Cl)n1nc(N2CCNCC2)ccc1=O	>	1920
CC[C@@H]1CNCCN1c1ccc(=O)n(CCOc2ccccc2Cl)n1	=	407
Cc1cc(N2CCNCC2)nn(CCOc2ccccc2Cl)c1=O	>	10000
O=c1ccc(N2CCNCC2)nn1CCOc1cccc(Cl)c1	>	10000
O=c1ccc(N2CCNCC2)nn1CCOc1ccccc1Cl	=	164
C[C@H](Cn1nc(N2CCNCC2)ccc1=O)Oc1ccccc1Cl	=	858
O=c1ccc(N2CCNCC2)nn1CCOc1ccccc1C(F)(F)F	=	47
Cc1ccccc1OCCn1nc(N2CCNCC2)ccc1=O	>	4550
Clc1ccccc1CCOc1cncc(N2CCNCC2)n1	=	10
C[C@@H](COc1ccccc1Cl)n1nc(N2CCNCC2)ccc1=O	=	25
O=CC1CNCCN1c1ccc(=O)n(CCOc2ccccc2Cl)n1 (centres undefined)	>	9980
C[C@H]1CN(c2ccc(=O)n(CCOc3ccccc3Cl)n2)CCN1	>	10000
C[C@H]1CNCCN1c1ccc(=O)n(CCOc2ccccc2Cl)n1	>	10000
COc1ccccc1OCCn1nc(N2CCNCC2)ccc1=O	>	10000
O=c1ccc(N2CCNCC2)nn1CCOc1ccccc1	>	10000

====

Entries and their efflux ratio
ASSAY NAME: Efflux ratio of permeability across MDCK cell membrane
Assay type: ADME, cell-based, Canis lupus familiaris
STUDY CONDITIONS: dog

COMPOUND STRING	efflux ratio
C[C@@H]1CNCCN1c1ccc(=O)n(CCOc2ccccc2Cl)n1	6
O=c1ccc(N2CCNCC2)nn1CCOc1ccccc1Cl	5
Clc1ccccc1CCOc1cncc(N2CCNCC2)n1	2

====

Measured EC50 by item
TESTED TARGET: UniProtKB P28223
ASSAY NAME: Agonist activity at human recombinant 5HT2A receptor expressed in Swiss mouse 3T3 cells assessed as induction of calcium mobilization by FLIPR assay

COMPOUND STRING	EC50 [nM]
O=c1ccc(N2CCNCC2)nn1CCOc1ccccc1C(F)(F)F	1090
C[C@@H]1CNCCN1c1ccc(=O)n(CCOc2ccccc2Cl)n1	114
C[C@@H](COc1ccccc1Cl)n1nc(N2CCNCC2)ccc1=O	65
O=c1ccc(N2CCNCC2)nn1CCOc1ccccc1Cl	254
C[C@@H]1CNCCN1c1ccc(=O)n(CCOc2ccccc2C(F)(F)F)n1	41
Clc1ccccc1CCOc1cncc(N2CCNCC2)n1	308

====

ASSAY NAME: Metabolic stability in human liver microsomes
Assay type: ADME, Microsome
STUDY CONDITIONS: read-out: Stability
OBSERVATION TYPE: microsomal CLint (µL/min/mg)

COMPOUND STRING	UOM	RELATION QUALIFIER	TEST VALUE
Clc1ccccc1CCOc1cncc(N2CCNCC2)n1	µL/min/mg	=	94
O=c1ccc(N2CCNCC2)nn1CCOc1ccccc1Cl	µL/min/mg	<	7
C[C@@H]1CNCCN1c1ccc(=O)n(CCOc2ccccc2Cl)n1	µL/min/mg	=	9.8

====

TESTED TARGET: 5-hydroxytryptamine receptor 2B (Homo sapiens, UniProt P41595)
Sequence (P41595 whole entry): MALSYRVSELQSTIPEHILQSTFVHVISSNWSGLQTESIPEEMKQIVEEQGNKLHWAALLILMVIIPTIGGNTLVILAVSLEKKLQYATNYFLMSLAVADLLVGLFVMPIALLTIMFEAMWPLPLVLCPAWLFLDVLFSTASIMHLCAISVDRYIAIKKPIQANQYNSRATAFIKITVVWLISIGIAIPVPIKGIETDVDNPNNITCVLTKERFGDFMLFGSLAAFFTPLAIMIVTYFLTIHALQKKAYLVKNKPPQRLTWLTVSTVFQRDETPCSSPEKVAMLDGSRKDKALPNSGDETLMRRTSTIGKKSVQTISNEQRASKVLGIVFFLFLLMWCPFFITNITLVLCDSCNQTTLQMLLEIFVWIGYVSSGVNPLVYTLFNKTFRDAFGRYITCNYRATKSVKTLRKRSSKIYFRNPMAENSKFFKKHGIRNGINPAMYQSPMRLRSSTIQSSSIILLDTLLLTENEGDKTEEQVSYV
ASSAY NAME: Agonist activity at human recombinant 5HT2B receptor expressed in Swiss mouse 3T3 cells assessed as induction of calcium mobilization by FLIPR assay
pEC50: −log10 of the molar value.

COMPOUND STRING	pEC50
O=c1ccc(N2CCNCC2)nn1CCOc1ccccc1Cl	< 5.00
Clc1ccccc1CCOc1cncc(N2CCNCC2)n1	6.73
C[C@@H](COc1ccccc1Cl)n1nc(N2CCNCC2)ccc1=O	6.30
O=c1ccc(N2CCNCC2)nn1CCOc1ccccc1C(F)(F)F	< 5.00
C[C@@H]1CNCCN1c1ccc(=O)n(CCOc2ccccc2C(F)(F)F)n1	< 5.58
C[C@@H]1CNCCN1c1ccc(=O)n(CCOc2ccccc2Cl)n1	< 5.00

====

ASSAY NAME: Lipophilicity, log D at pH 7.4
Assay type: physicochemical
STUDY CONDITIONS: buffer
Listing: logD of selected compounds

COMPOUND STRING	logD
Clc1ccccc1CCOc1cncc(N2CCNCC2)n1	2.2
C[C@@H]1CNCCN1c1ccc(=O)n(CCOc2ccccc2Cl)n1	0.9
O=c1ccc(N2CCNCC2)nn1CCOc1ccccc1Cl	0.6

====

TESTED TARGET: 5-hydroxytryptamine receptor 2C (Homo sapiens) (UniProt P28335)
Sequence (P28335 whole entry): as the sequence (P28335 whole entry) above
ASSAY NAME: Agonist activity at human recombinant 5HT2C receptor expressed in CHOK1 cells assessed as induction of calcium mobilization by FLIPR assay
Format: functional, cell-based
STUDY CONDITIONS: CHO-K1
OBSERVATION TYPE: Emax (%)

COMPOUND STRING	OBSERVATION TYPE	UOM	TEST VALUE
CC[C@@H]1CNCCN1c1ccc(=O)n(CCOc2ccccc2Cl)n1	Emax	%	41
Cc1ccccc1OCCn1nc(N2CCNCC2)ccc1=O	Emax	%	36
N#Cc1ccccc1OCCn1nc(N2CCNCC2)ccc1=O	Emax	%	69
C[C@@H](COc1ccccc1Cl)n1nc(N2CCNCC2)ccc1=O	Emax	%	77
C[C@@H](Cn1nc(N2CCNCC2)ccc1=O)Oc1ccccc1Cl	Emax	%	87
C[C@H](Cn1nc(N2CCNCC2)ccc1=O)Oc1ccccc1Cl	Emax	%	53
O=c1ccc(N2CCNCC2)nn1CCOc1ccccc1C(F)(F)F	Emax	%	45
Clc1ccccc1CCOc1cncc(N2CCNCC2)n1	Emax	%	69
O=c1ccc(N2CCNCC2)nn1CCOc1ccccc1Cl	Emax	%	58
Cc1cc(=O)n(CCOc2ccccc2Cl)nc1N1CCNCC1	Emax	%	31
O=c1ccc(N2CCNCC2)nn1CCOc1ccccc1Br	Emax	%	34
C[C@H](COc1ccccc1Cl)n1nc(N2CCNCC2)ccc1=O	Emax	%	55
C[C@@H]1CNCCN1c1ccc(=O)n(CCOc2ccccc2Cl)n1	Emax	%	51
C[C@@H]1CNCCN1c1ccc(=O)n(CCOc2ccccc2C(F)(F)F)n1	Emax	%	51
